system: Escherichia coli TOP10; test: shrunken log2 fold change of peptide-encoding DNA abundance (4.5 h post-induction vs induction); higher = less antimicrobial activity (less host growth inhibition); details: time post-induction: 4.5 h; library: site-saturation at positions 5, 18, 19, 20;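 further: peptides expressed intracellularly from a pBAD plasmid library in pooled LB shake-flask culture, induced with 0.3% L-arabinose, DNA abundance read by NGS, three biological replicates, DESeq2 with apeglm shrinkage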
Measured shrunken log2 fold change, listed per entry for reference.

| INPUT_SEQUENCE | shrunken log2 fold change |
| --- | --- |
| RRIRNRPPRLPRPRPRPQRVPRP | 0.399 |
| RRIRLRPPRLPRPRPRPHSPPRP | -0.252 |
| RRIRIRPPRLPRPRPRPCREPRP | -0.0225 |
| RRIRIRPPRLPRPRPRPDTGPRP | -0.375 |
| RRIRGRPPRLPRPRPRPQAQPRP | 1.02 |
| RRIRPRPPRLPRPRPRPHNSPRP | -0.454 |
| RRIRPRPPRLPRPRPRPMVVPRP | -0.153 |
| RRIRNRPPRLPRPRPRPIEYPRP | -0.0134 |
| RRIRWRPPRLPRPRPRPRGQPRP | 0.302 |
| RRIRFRPPRLPRPRPRPPHMPRP | -0.137 |
| RRIRTRPPRLPRPRPRPKIFPRP | -0.219 |
| RRIRERPPRLPRPRPRPWDWPRP | 0.0223 |
| RRIRERPPRLPRPRPRPPPHPRP | 0.619 |
| RRIRSRPPRLPRPRPRPCQKPRP | 0.185 |
| RRIRTRPPRLPRPRPRPYAPPRP | -1.07 |
| RRIRKRPPRLPRPRPRPCSGPRP | 0.00663 |
| RRIRDRPPRLPRPRPRPEMHPRP | 0.891 |
| RRIRYRPPRLPRPRPRPDNNPRP | -0.189 |
| RRIRARPPRLPRPRPRPASAPRP | 0.52 |
| RRIRYRPPRLPRPRPRPWFFPRP | -0.841 |
| RRIRMRPPRLPRPRPRPACYPRP | 0.223 |
| RRIRTRPPRLPRPRPRPFPQPRP | -0.042 |
| RRIRFRPPRLPRPRPRPASFPRP | 0.279 |
| RRIRQRPPRLPRPRPRPIIEPRP | -0.504 |
| RRIRVRPPRLPRPRPRPFHQPRP | 0.032 |
| RRIRVRPPRLPRPRPRPQTKPRP | 0.0433 |
| RRIRARPPRLPRPRPRPVYYPRP | -0.518 |
| RRIRWRPPRLPRPRPRPGRWPRP | 0.742 |
| RRIRARPPRLPRPRPRPMIMPRP | -0.0807 |
| RRIRIRPPRLPRPRPRPSPWPRP | -0.34 |
| RRIRQRPPRLPRPRPRPLWCPRP | -0.24 |
| RRIRYRPPRLPRPRPRPFETPRP | 0.111 |
